# assay-method-text: protease stability score; higher = more stable; yeast display proteolysis, trypsin and chymotrypsin;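 note: relative to predicted unfolded state with 0 unfolded-like and 1 meaning tenfold more protease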
Property: protease stability score; scope: individual sequences
Just the number, please, no unit after it.

# example entries with known answers
# query-sequence, protease stability score
records = [
    ("REDEQLFHEMLRRVIHALLTGDEQILADLLDPRMRIMYDGVSRHGWHDFIEVLRDLGFDHLILKDYRIQGDYVRFHFIIEQGDKHHTVEIHVQIWDGKVEQIVVNYR", 2.04),
    ("SEEEEHAEELIRLELEALLTGDEEHMARNLDPNVRININGKDIVGREEVSRFLKHLRVRSIHIEIKDFRVIGNWLHVDGRVHFHGHFDGRKIDSTTQFHMILVKINGRWFIHSVKFQ", 2.6),
    ("SEDEENAERFIQHWVHNMETGNEERLFELADPNVRLDVNGRDLIGREEFQKSMRWLINRVKNITVRVDKVTIQGNKLLVHTEVRVGDKHHETELIFLKVDGRWRIHEMRIV", 1.52),
    ("DEEQQDLIEVVNRYLRAVLTGDEDDLRELLDPHYRIRIGDKEFVGWKEFIRHVREARYTIHRWSVDSVEIIGDKVILYGELDGIEKVNGKTIKKRFEVIFYINKIDGRWHFKHIEFH", 2.29),
    ("SEDEDLSRHLSELWLDALRTGDEKSTHKMADPHTRVEVGDKTDHGMEVWNRIFERFKGARLEITEWRTIGEKVHYHMHIEYGDKHVDVEIEIIQINGQVKEFIIRVRIK", 0.249),
]

Task item: Look at this sequence and give its reported protease stability score. `SEEEELIHILERLIIEFRRTGNEEAWMNLMDPHAKVEIGDFDLIGRDEVSRWLHHLRIDDIHITLRRFRDIDGRVISYGEENIRVDFNGQHVEFRRRSILILFKVDGQWYIESIHVH`
Reply: 0.959

Task item: Look at this sequence and give its reported protease stability score. `HEEEEHSIRILEEWWRALLTGDEDRLKELMDPHVLLLSDVGDKNHIHIGREEAFRFWHEFVRQVKNMTLRIDQVHVQGDKVHLRGTLLINGRERDIRIDILIINGKVREVRIKII`
Reply: 2.45

Task item: Look at this sequence and give its reported protease stability score. `DEEERAAEEFLRWISKNSRTGDEESFNHLADPNTRVIIGDKVLHGREEWKKFLEEIRIEEIELKDFRIFDGKIRLDVIHTGKVNGRRHEVQVQMIVIKVNGRWIMHSVKFD`
Reply: 1.09

Task item: Look at this sequence and give its reported protease stability score. `SEDHERTEIAFKIMLHIFDTGDEHTMHRLVDPNARLRIGDKDWHGREFFFDVISRIKNLRIEELSIEDDDFVNGRIILHGRRNGSIGDKEIDTIVHLLIKKVDGRWRIEHVHNE`
Reply: 1.36

Task item: Look at this sequence and give its reported protease stability score. `SELEETLKRSYELLSRILETGDEHRLKSLADPHTRMDFNGVEVHGMHLTVQWMKEFGADHEQYEVRIKRLDVQGDKLHSHGLLIIRIFINGRTIDLKIETHMHAEKIDGRWVIREIIWR`
Reply: 1.36

Task item: Look at this sequence and give its reported protease stability score. `DEREEEAERILREWIKAVETGDFEQIMRYLDPNVRIIVNGKHHHGREILVHLIIRFLRELGADHITFHHDRIHLYDGVLVIDIHLEIRQGDKRYEFHEEIYIIKVNGRWIVRRVIIR`
Reply: 2.8

Task item: Look at this sequence and give its reported protease stability score. `SEDHEVLRVALELMLHFLTTGDWHLLRKLMDPEVRIRVGEKHIHGMDLILSEWVRVIRELGVKHYHIEVKRDHHQGDKIHLDGTLHIDVNGRQIHIRTEIIAHKVDGKWIHESQVIN`
Reply: 0.988

Task item: Look at this sequence and give its reported protease stability score. `TKDDEDRKHFEKLLRHSLETGNWHDMQRNADPNVRLNVNGVEIHGMDTAYELWVEELNRADHIEIHMEHSTRVGDKLHLDVNVIMKQGDKHIERRVRLVVLKINGRWFIHSVHVH`
Reply: 1.1

Task item: Look at this sequence and give its reported protease stability score. `SEEEEHSLKIARQWVENVLTGDEHLLRKLADPDTRIIVDGRHYHGWRQEHKVLEEIRIHDMFEKDVEVQGDKIYMNGTVDGEINGKRTRSDVDLIILVVDGRIKQVEINVH`
Reply: 1.12

Task item: Look at this sequence and give its reported protease stability score. `SEEHHIIHKFLEDFLRSWITGDEKSMKELLDPHAKVDIRVNGRDVHPHGWEFLEWYKRFFKNAQFRVHDIDVQGNKVHLITEVVVNGQKEEMHIHLQVVDGRAERVETRIH`
Reply: 1.9

Task item: Look at this sequence and give its reported protease stability score. `SEEKEEVKEVVEHVLEVMLTGDEEHSRELVDPHVRIEVGDKSRHGRDDMAHWLSHARIHRLHIKRSEVIGDYLHIDVHIDVEYNGKRMTTDVRRHELKVDGRWFIREERIE`
Reply: 1.42

Task item: Look at this sequence and give its reported protease stability score. `SEEERTQTLAMKIIWDVLLTGDWKELFDNMDPHARMEINGRKFHGREEIIRHLRELHNKLGIDRVESHLHSVHYVDGVIHVDIHLHYNGKDERIEIIAMKYNGRWTLTEVNYREE`
Reply: 2.13

Task item: Look at this sequence and give its reported protease stability score. `SELEELWRKMVEFQERSNTTGDEKSFLEMLDPDMRIIIGDFEFHGRENAKDYLRRVDHIHHVEYRRVDLQGDKAHIEMHINGHWDGRTHRTDTHLHLRKFNGRWHVEDVQVD`
Reply: 1.41
